Origin of measurements: patent US5830897A

Molecular target: HIV protease (Human immunodeficiency virus type 1 group M subtype B)
Construct: HIV protease is diluted in the assay buffer to a final enzyme concentration of 12.3 nanomolar, based on a molecular weight of 10,780
Test: biochemical
Settings: Table 15A, second part (Ex., Table, Entry)
Method: The enzyme method is described below. […] The positive control is MVT-101 (Miller, M. et al, Science, 246, 1149 (1989)] The assay conditions are as follows: Assay buffer: 20 mM sodium phosphate, pH 6.4 The above described substrate is dissolved in DMSO, then diluted 10 fold in assay buffer. […] The final concentration of DMSO is 14% and the final concentration of glycerol is 18%. […] The increase in fluorescence is monitored at 4 time points (0, 8, 16 and 24 minutes) at ambient temperature. […]
Quick list: IC50 per entry.
quantity.kind: IC50 (µM)

compound="CC(C)CCN(C[C@@H](O)[C@H](Cc1ccccc1)NC(=O)OCc1ccccc1)S(=O)(=O)c1ccc2ccccc2c1 [Table 1a Entry 4]" unit_info=µM reported_result=0.016
compound="CC(C)CCN(C[C@@H](O)[C@H](Cc1ccccc1)NC(=O)OCc1ccccc1)S(=O)(=O)c1ccccc1 [Table 1A Entry 39]" unit_info=µM reported_result=0.016
compound="CC(C)CCN(C[C@@H](O)[C@H](Cc1ccccc1)NC(=O)OCc1ccccc1)S(=O)(=O)c1ccc(F)cc1 [Table 1a Entry 1]" unit_info=µM reported_result=0.011
compound="CC(C)CCN(C[C@@H](O)[C@H](Cc1ccccc1)NC(=O)[C@@H](NC(=O)CBr)C(C)(C)C)S(=O)(=O)c1ccccc1 [Table 12 Entry 10]" unit_info=µM reported_result=0.0033
compound="CC(C)CCN(C[C@@H](O)[C@H](Cc1ccccc1)NC(=O)C(N)C(C)(C)C)S(=O)(=O)c1ccccc1 (stereo partly drawn) [Table 11 Entry 1]" unit_info=µM reported_result=0.13
compound="CC(C)CN(C[C@@H](O)[C@H](Cc1ccccc1)NC(=O)OCc1ccccc1)S(=O)(=O)c1ccc(F)cc1 [Table 1a Entry 7]" unit_info=µM reported_result=0.0096
